src = PubChem BioAssay (NCI)

- Test system: OVCAR-8 ovarian
- Assay remarks: NCI-60 one-dose screen, 48 h (100 = growth as untreated, 0 = no growth, -100 = all killed)
- Test conditions: 10 µM unless noted
About 83,000 compounds went through this panel and 20% of them were active in at least one assay; those are over-represented in the sample as a whole.
As shown below, each of these compounds has a reported growth value.
Give just the number in %; leave the unit off.

Consider the following illustrative entries.
Input smiles | growth (%)
COc1ccc(-c2c(-c3cc4c(c(OC)c3OC)OCO4)noc2N)cc1 | 32.1
CCOC(=O)n1cc(C2=C(c3cn(C)c4ccccc34)COC2=O)c2ccccc21 | 16.5
Cc1nc2cc(Nc3nc(Nc4ccc(F)cc4)nc(N4CCCC4)n3)ccc2n1Cc1ccccc1 | -35.2

Task: Requested field: growth. Item: O=C1C=CC(=O)N1CCCCCCCCCCN1C(=O)C=CC1=O
Result: 78.2

Task: Requested field: growth. Item: Cc1nc2nc(C(F)(F)F)[nH]c2nc1C
Result: 105

---

- Tested on: CAKI-1 renal
- Assay remarks: NCI-60 one-dose screen, 48 h (100 = growth as untreated, 0 = no growth, -100 = all killed)
- Test conditions: 10 µM unless noted
Compounds without any hit were thinned out: in the full panel of roughly 83,000, 20% have a hit.
Records here are stratified by growth; strata: lower segment: < 50%; middle segment: ≥ 50% and < 90%; upper segment: ≥ 90%

Task: The entry to classify is COc1ccc(/C=N/OCC(O)CNCc2ccccc2)cc1OC1CCCC1 (stereo unspecified) ; which class holds it?
Result: middle segment

Task: The entry to classify is Cc1cccc2c(=O)c3c(sc12)c(NCCNCCO)nc1ccccc13 ; which class holds it?
Result: lower segment

---

- Tested on: OVCAR-3 ovarian
- Assay remarks: NCI-60 one-dose screen, 48 h
- Test conditions: 10 µM unless noted
The panel holds about 83,000 compounds, 20% with a hit somewhere; the sample as a whole holds those more often. The source made the active and inactive calls. How the source made its calls: active means growth percent below 10; inactive means the rest.
Answer with one of the outcomes given here: label 1 for active, label 0 for inactive

Here are 3 compounds together with their reported answers.
Compound | Assigned label
O=C(CCCCCCC(=O)Nc1ccc2c(c1)/C(=C/c1ccc[nH]1)C(=O)N2)NO | label 1
COc1cc(/C=N/NC(=O)c2cnn3c2NC(c2ccccc2)C3)ccc1OC1CCCC1 (centres undefined) | label 1
O=C(N/N=C/c1ccc(F)cc1)c1[nH]c2ccc(I)cc2c1-c1ccccc1 | label 1

Task: Just curious, what result did COc1ccc(/C=N\N2CCOCC2)cc1OC1CCCC1 get here?
Result: label 0

Task: Just curious, what result did O=C1CCC(N2C(=O)c3cccc(NCCOCCOCCNC(=O)c4cc5c(o4)C(=O)c4ccccc4C5=O)c3C2=O)C(=O)N1 (centres undefined) get here?
Result: label 1

Task: Just curious, what result did COC(=O)[C@@]12CC[C@@H](C)[C@]3(C[C@@H](c4ccoc4)OC3=O)[C@H]1CC[C@@H]1O[C@@]12C get here?
Result: label 0

Task: Just curious, what result did Oc1ccc2ccccc2c1C1NN=C(c2ccccc2)S1 (centres undefined) get here?
Result: label 0

Task: Just curious, what result did COc1ccc(-c2cc(=O)oc3c4c(ccc23)OCN(Cc2ccc(F)cc2)C4)cc1 get here?
Result: label 0

Task: Just curious, what result did COc1ccc(/C=C2\CN(Cc3cn(CCCNc4ccnc5cc(Cl)ccc45)nn3)C/C(=C\c3ccc(OC)cc3)C2=O)cc1 get here?
Result: label 0
